# subject of test: Ste12 (UniProt P13574)
# Sequence (P13574 whole entry): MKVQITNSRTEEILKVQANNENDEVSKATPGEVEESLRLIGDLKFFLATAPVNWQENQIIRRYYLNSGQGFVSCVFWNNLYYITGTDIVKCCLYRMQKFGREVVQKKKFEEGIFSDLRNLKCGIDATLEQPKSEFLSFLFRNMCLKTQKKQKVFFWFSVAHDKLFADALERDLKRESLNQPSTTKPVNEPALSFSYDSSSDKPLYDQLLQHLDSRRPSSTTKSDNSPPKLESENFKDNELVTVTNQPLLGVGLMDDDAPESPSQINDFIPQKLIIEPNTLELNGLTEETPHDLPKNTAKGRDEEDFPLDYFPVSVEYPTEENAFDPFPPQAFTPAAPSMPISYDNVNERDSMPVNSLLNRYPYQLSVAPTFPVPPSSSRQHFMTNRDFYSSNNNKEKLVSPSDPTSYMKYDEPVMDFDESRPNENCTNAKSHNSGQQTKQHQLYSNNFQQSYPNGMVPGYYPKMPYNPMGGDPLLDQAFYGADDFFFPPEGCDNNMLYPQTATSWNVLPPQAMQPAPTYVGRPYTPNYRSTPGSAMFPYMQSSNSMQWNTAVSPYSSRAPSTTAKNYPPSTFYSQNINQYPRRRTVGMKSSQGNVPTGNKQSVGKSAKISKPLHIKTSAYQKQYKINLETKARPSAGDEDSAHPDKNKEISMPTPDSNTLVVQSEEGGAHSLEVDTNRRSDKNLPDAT
# protocol details: PBM E-score (8-mer binding enrichment) (E-score (-0.5 to 0.5)); higher = stronger / more preferred TF binding
# recorded conditions: protein concentration: 200 nM; construct: GST-DNA-binding domain
Whole data set: some 33,000 sequences, median “E-score (-0.5 to 0.5)” near -0.01, cut for the highest 2% near 0.26. The entries come from a sample that favours the highest values as a whole.
value kind: PBM E-score

>>> value_reported("ACTATTAC")
0.0443
>>> value_reported("AAGAGATA")
-0.0137
>>> value_reported("TTCTCAAA")
0.291
>>> value_reported("ATAACCAG")
-0.0264
>>> value_reported("AATGAATC")
0.16
>>> value_reported("ATTTATTC")
0.121
>>> value_reported("CTCTCAAA")
0.0271
>>> value_reported("GATGAACA")
0.00898
>>> value_reported("GAAGACTA")
-0.0635
>>> value_reported("ATTTATTA")
0.292
>>> value_reported("CTAACCAA")
0.186
>>> value_reported("GAAACCGC")
0.351
>>> value_reported("ATCTCAAG")
0.0665
>>> value_reported("ACAGGATG")
0.0588
>>> value_reported("ATTATTAC")
0.269
>>> value_reported("ATCTCAAA")
0.27
>>> value_reported("AATGAATT")
0.133
>>> value_reported("AAAACCAA")
0.209
>>> value_reported("CTTATTAC")
0.0999
>>> value_reported("GAAACCAA")
0.355
>>> value_reported("ATTTATTG")
0.0911
>>> value_reported("GTCTCAAA")
0.218

###

# subject of test: Ste12 (UniProt P13574)
# protocol details: PBM E-score (8-mer binding enrichment) (E-score (-0.5 to 0.5)); higher = stronger / more preferred TF binding
# recorded conditions: protein concentration: 200 nM; construct: GST-DNA-binding domain
The full ranking holds about 33,000 sequences; the median of “E-score (-0.5 to 0.5)” is about -0.01, and the highest 2% start at about 0.26. For the sample, the highest values were picked, then their nearest neighbours and some sequences at random.
value kind: PBM E-score

>>> value_reported("GTACCAAA")
0.0457
>>> value_reported("AGTTTTAG")
0.12
>>> value_reported("GCTTAAAA")
0.31
>>> value_reported("TTACCGAA")
0.276
>>> value_reported("GTACCGAA")
0.0964
>>> value_reported("AGTGTTTG")
0.245
>>> value_reported("TGTTTAAA")
0.26
>>> value_reported("TTTAAAAA")
0.184
>>> value_reported("AGCCTTAT")
0.0824
>>> value_reported("CGTGTTTA")
0.0319
>>> value_reported("CGTTTCTC")
0.0338
>>> value_reported("TTACCAAA")
0.263
>>> value_reported("ATATTGCA")
0.104
>>> value_reported("AACGTCAG")
-0.155
>>> value_reported("AGTTTCTC")
-0.0852
>>> value_reported("AGTTTTAA")
0.212
>>> value_reported("CATTTCAC")
0.099
>>> value_reported("AGTGTTTA")
0.174
>>> value_reported("CGTTTCGA")
0.195
>>> value_reported("AGTTTTAT")
0.275
>>> value_reported("CGTGTTGC")
0.0401
>>> value_reported("AATCCAGC")
-0.221

###

# subject of test: Ste12 (UniProt P13574)
# protocol details: PBM E-score (8-mer binding enrichment) (E-score (-0.5 to 0.5)); higher = stronger / more preferred TF binding
# recorded conditions: protein concentration: 200 nM; construct: GST-DNA-binding domain
In all, about 33,000 sequences were measured (“E-score (-0.5 to 0.5)”: median about -0.01, highest 2% from about 0.26 on). The full list was thinned out, with the highest values kept by preference.
Assign class by PBM E-score: not lower than 0.04 means Yes; lower than 0.04 means No.

>>> qualitative_label("GTGTAGGA")
"No"
>>> qualitative_label("GGTGTGAA")
"Yes"
>>> qualitative_label("ACTGTGAT")
"No"
>>> qualitative_label("AATGTCAT")
"No"
>>> qualitative_label("CTCCTGGA")
"No"
>>> qualitative_label("AGACAGCT")
"No"
>>> qualitative_label("CGTGGAAA")
"Yes"
>>> qualitative_label("AGGTAGCC")
"No"
>>> qualitative_label("GCATCCGA")
"No"
>>> qualitative_label("CATGGAAA")
"Yes"
>>> qualitative_label("ACATGGAC")
"No"

###

# subject of test: Ste12 (UniProt P13574)
# protocol details: PBM E-score (8-mer binding enrichment) (E-score (-0.5 to 0.5)); higher = stronger / more preferred TF binding
# recorded conditions: protein concentration: 200 nM; construct: GST-DNA-binding domain
Whole data set: some 33,000 sequences, median “E-score (-0.5 to 0.5)” near -0.01, cut for the highest 2% near 0.26. This is one part of a sample in which the highest values are shown more often than they occur.
Known PBM E-score of a selection of sequences
value kind: PBM E-score

>>> value_reported("AACCAAAA")
0.324
>>> value_reported("CTCCCCTA")
-0.0541
>>> value_reported("GTTTGCAA")
0.186
>>> value_reported("ACTACTCA")
-0.0467
>>> value_reported("ATACGTGG")
-0.0972
>>> value_reported("CACCAAAA")
0.216
>>> value_reported("GATCTGCC")
0.0158
>>> value_reported("CGCCCCTC")
0.351
>>> value_reported("AGCGCTAT")
0.0744
>>> value_reported("TCAAACAA")
0.266
>>> value_reported("TATAATAA")
0.141
>>> value_reported("GCATTCGC")
-0.276
>>> value_reported("CAATATAC")
0.116
>>> value_reported("CATAAGGC")
-0.0753
>>> value_reported("CCATGCCC")
-0.0778
>>> value_reported("GTTTTTTA")
0.149
>>> value_reported("AGGTTGGA")
0.114
>>> value_reported("GCCTAAGC")
-0.358
>>> value_reported("ACGCTGCC")
-0.108
>>> value_reported("ACCAGTTC")
0.0206
>>> value_reported("ACAAACAG")
0.125
>>> value_reported("ATGTTTAG")
0.214
>>> value_reported("CGCCCCTA")
0.214
>>> value_reported("ATCAGCCA")
-0.0331
>>> value_reported("AACGGTGA")
-0.122
>>> value_reported("AGTGCGCC")
-0.156
>>> value_reported("GCAAACAA")
0.146
>>> value_reported("CCAATCTC")
0.0596
>>> value_reported("ATAGCAAA")
0.0867
>>> value_reported("CTCCCCGC")
0.386
>>> value_reported("GTTTGACA")
0.0294
>>> value_reported("ATAATATG")
0.248
>>> value_reported("ACCAAAAA")
0.27
>>> value_reported("ATAATACG")
0.0652
>>> value_reported("AAGTAACA")
0.291
>>> value_reported("CCCCCCTC")
-0.244
>>> value_reported("TAATATAA")
0.287
>>> value_reported("AACTGGTA")
-0.00841
>>> value_reported("CGTTTTAG")
0.215
>>> value_reported("CACAATAG")
0.227
>>> value_reported("ATACCAGG")
0.0311
>>> value_reported("AGACGCGG")
0.0721
>>> value_reported("GCTTTCAC")
0.0706
>>> value_reported("CTCGCACA")
0.127
>>> value_reported("CAGTAAGG")
-0.0592
>>> value_reported("GGTCCTGA")
-0.163
>>> value_reported("AATTGAGT")
0.195
>>> value_reported("AAGCTCAG")
-0.179
>>> value_reported("CGAGCCGA")
-0.0584
>>> value_reported("GAAGGCTC")
-0.209
>>> value_reported("ACCAACAT")
0.125
>>> value_reported("ATGTTTCA")
0.493
>>> value_reported("AGTCAGTG")
-0.0387
>>> value_reported("ATCCCCTG")
-0.157
>>> value_reported("ATCTACGG")
-0.0913
>>> value_reported("CAATATAA")
0.316
>>> value_reported("ATAGGATG")
0.149
>>> value_reported("ATAATACC")
0.161
>>> value_reported("CGTTTTAA")
0.319
>>> value_reported("ATCCCCTA")
-0.0687
>>> value_reported("CCTCGCAA")
0.18
>>> value_reported("CGTTTTTA")
0.165
>>> value_reported("ACGCTTGG")
-0.293
>>> value_reported("ACGCGAGC")
-0.151
>>> value_reported("GTCGCTTA")
-0.193
>>> value_reported("GCTCTACC")
-0.167
>>> value_reported("CTTTTTAA")
0.104
>>> value_reported("CGTATAAC")
-0.0972
>>> value_reported("TACTTCCA")
0.0198
>>> value_reported("AGTAGACG")
-0.0195
>>> value_reported("ACGCTGAC")
-0.194
>>> value_reported("ATAATATA")
0.301
>>> value_reported("CGCAAGGC")
0.049
>>> value_reported("CTAGGGCA")
-0.159
>>> value_reported("CGTCACCC")
0.0725
>>> value_reported("ACCAACAA")
0.269
>>> value_reported("CCGTTGCC")
-0.253
>>> value_reported("CTTCCCTC")
-0.0689
>>> value_reported("CGTATACA")
0.306
>>> value_reported("GGACAGGA")
-0.152
>>> value_reported("GTTTTTAA")
0.261
>>> value_reported("GATTTCAC")
0.111
>>> value_reported("AAGCTCGT")
-0.195
>>> value_reported("CAGCTCAC")
-0.301
>>> value_reported("ACAATGGC")
0.0105
>>> value_reported("ACAAACAC")
0.266
>>> value_reported("GCTATGAC")
0.0507
>>> value_reported("GAACCGGA")
-0.0365
>>> value_reported("AAAACAAC")
0.154
>>> value_reported("CGTCGCTC")
-0.115
>>> value_reported("AAACTAGT")
0.123
